Non-standard residues stand in square brackets, D forms with d. Residues, ends and D or L forms follow the SMILES beside them. Aib = CC(C)(N)C(=O)O
measurementType: pKd
In textbook form, pKd equals minus log to base ten of the concentration in mol/L.

Q) Observed pKd on Aβ1-42 monomers (Homo sapiens, UniProt P05067) for CC(C)(NC(=O)[C@H](N)Cc1c[nH]c2ccccc12)C(N)=O [compound (1)] (H-[dW]-[Aib]-NH2) , please.
Sequence (P05067 672-713 limits assumed): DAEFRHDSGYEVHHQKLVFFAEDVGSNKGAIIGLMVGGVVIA
A) 8.60
